biological target: T1, human GPC3-His protein (human, UniProt P51654 25-559); assay: ELISA, coated human GPC3, antibody 10 nM;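 further: plate coated with antigen at 1 µg/mL, antibodies bound 2 h at 37 °C, detected via HRP-conjugated secondary antibody and TMB substrate, absorbance read after acid stop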
T1 construct: Bought protein; also called human GPC3 protein; not shown: His tag
Listed here are binders together with their documented OD450 nm.
Write it as a number; the unit OD450 goes unstated.

Examples with answers:
{"binder": "F1.73.9 human-murine chimeric antibody (antibody, human IgG1, kappa, V domains shown) VH: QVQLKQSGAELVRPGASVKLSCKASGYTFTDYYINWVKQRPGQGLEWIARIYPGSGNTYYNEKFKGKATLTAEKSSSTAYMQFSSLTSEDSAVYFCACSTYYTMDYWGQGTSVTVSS VL: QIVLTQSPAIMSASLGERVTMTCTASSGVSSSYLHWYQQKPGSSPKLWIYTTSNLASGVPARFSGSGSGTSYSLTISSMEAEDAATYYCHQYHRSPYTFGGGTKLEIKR", "value.units": "OD450", "OD450 nm": 1.74}
{"binder": "F3.54.12 human-murine chimeric antibody (antibody, human IgG1, kappa, V domains shown) VH: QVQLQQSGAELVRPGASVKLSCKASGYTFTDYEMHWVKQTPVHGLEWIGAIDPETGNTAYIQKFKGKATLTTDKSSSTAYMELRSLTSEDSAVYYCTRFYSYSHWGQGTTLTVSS VL: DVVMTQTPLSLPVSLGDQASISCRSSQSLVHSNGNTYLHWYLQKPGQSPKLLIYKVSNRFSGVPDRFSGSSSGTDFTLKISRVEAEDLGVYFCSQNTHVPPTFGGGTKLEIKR", "value.units": "OD450", "OD450 nm": 2.41}
{"binder": "F2.152.3 human-murine chimeric antibody (antibody, human IgG1, kappa, V domains shown) VH: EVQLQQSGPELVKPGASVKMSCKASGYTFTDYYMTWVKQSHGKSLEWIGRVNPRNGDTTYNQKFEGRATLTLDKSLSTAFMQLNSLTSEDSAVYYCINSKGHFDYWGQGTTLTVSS VL: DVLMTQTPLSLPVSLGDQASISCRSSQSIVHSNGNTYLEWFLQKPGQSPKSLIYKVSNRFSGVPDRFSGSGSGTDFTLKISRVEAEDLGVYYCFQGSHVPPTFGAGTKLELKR", "value.units": "OD450", "OD450 nm": 2.43}
{"binder": "F4.21.16 human-murine chimeric antibody (antibody, human IgG1, kappa, V domains shown) VH: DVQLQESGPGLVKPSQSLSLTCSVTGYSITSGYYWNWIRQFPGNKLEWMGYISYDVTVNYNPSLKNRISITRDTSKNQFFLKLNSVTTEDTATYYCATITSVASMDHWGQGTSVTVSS VL: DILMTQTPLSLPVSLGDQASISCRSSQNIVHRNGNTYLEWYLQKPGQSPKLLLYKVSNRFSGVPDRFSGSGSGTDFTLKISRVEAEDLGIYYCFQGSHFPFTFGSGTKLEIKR", "value.units": "OD450", "OD450 nm": 1.14}
{"binder": "F1.3.9 human-murine chimeric antibody (antibody, human IgG1, kappa, V domains shown) VH: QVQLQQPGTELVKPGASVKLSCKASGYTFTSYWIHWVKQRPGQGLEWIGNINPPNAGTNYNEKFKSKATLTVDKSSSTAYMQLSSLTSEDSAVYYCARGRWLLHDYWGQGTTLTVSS VL: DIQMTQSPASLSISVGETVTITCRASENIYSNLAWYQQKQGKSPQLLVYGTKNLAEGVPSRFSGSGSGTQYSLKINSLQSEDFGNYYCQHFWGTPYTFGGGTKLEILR", "value.units": "OD450", "OD450 nm": 1.95}
{"binder": "F1.120.16 human-murine chimeric antibody (antibody, human IgG1, kappa, V domains shown) VH: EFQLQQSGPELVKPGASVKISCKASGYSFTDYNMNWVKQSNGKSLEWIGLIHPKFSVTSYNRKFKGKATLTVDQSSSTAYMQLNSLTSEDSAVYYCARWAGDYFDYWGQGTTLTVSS VL: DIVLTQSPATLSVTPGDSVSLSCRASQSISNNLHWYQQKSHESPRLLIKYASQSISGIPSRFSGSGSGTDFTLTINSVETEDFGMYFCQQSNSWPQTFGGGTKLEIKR", "value.units": "OD450", "OD450 nm": 1.63}
{"binder": "F1.62.9 human-murine chimeric antibody (antibody, human IgG1, kappa, V domains shown) VH: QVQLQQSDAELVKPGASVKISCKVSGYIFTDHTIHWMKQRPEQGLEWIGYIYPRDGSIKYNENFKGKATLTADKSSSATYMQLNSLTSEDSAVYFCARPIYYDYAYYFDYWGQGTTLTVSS VL: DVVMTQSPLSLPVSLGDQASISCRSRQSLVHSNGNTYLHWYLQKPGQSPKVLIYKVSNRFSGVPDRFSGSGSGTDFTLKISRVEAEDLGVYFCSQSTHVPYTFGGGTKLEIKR", "value.units": "OD450", "OD450 nm": 0.96}
{"binder": "F1.111.11 human-murine chimeric antibody (antibody, human IgG1, kappa, V domains shown) VH: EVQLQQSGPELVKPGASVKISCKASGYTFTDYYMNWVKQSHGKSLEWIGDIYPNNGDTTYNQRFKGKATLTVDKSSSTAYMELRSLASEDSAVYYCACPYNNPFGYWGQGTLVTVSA VL: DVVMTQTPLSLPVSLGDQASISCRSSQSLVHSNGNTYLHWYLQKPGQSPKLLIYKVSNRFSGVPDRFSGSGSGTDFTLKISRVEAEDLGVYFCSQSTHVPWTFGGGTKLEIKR", "value.units": "OD450", "OD450 nm": 2.46}
{"binder": "F1.21.8 human-murine chimeric antibody (antibody, human IgG1, kappa, V domains shown) VH: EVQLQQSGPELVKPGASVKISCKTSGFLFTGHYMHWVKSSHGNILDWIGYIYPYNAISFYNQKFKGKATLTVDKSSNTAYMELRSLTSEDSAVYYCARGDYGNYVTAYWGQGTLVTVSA VL: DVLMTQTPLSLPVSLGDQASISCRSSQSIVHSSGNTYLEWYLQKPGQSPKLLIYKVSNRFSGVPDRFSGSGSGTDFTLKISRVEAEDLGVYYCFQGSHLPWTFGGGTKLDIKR", "value.units": "OD450", "OD450 nm": 1.7}

Ask: Please look up its OD450 nm: F1.83.6 human-murine chimeric antibody (antibody, human IgG1, kappa, V domains shown) VH: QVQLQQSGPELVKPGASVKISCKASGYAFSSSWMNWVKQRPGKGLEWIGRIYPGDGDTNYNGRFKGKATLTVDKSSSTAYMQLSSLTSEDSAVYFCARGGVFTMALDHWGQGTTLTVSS VL: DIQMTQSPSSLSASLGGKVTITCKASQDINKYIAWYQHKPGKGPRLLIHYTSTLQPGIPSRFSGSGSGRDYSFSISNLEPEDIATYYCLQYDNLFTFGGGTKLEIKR
Reply: 1.19
